measurement_target: T1, RBFOX1 RRM (Homo sapiens, UniProt Q9NWB1 109-208)
T1 sequence: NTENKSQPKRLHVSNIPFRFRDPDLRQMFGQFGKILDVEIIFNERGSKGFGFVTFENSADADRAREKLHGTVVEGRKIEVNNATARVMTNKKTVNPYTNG
procedure_details: EMSA; HiTS-Eq, 1 nM pool, 10 min; buffer printed only for the single-RNA assays: 10 mM Tris pH 7.5, 150 mM NaCl, 3.4 mM EDTA, 0.001% NP-40, 30 C
settings: tags: His6 N-terminal (pET28a); label: 5' 32P
Over roughly 16,000 sequences, “ka relative to ugcaugu” has its median near 0.0091; the highest 2% begin near 0.032. The sample holds the highest values, similar sequences and a random draw of the others, so the mix is not that of the screen.
# reported binding signal; entries follow

Check out these entries, answers already filled in.
GCAUGGG (DNA:RNA) RNA: GGGAGACCGGAAUUCAGAUUGUCCGCAUGGGUUAAAUCCCGUCGUAGCCACCA DNA 1: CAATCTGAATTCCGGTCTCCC DNA 2: TGGTGGCTACGACGGGATT :: 0.0735 KA relative to UGCAUGU
CGCACGC (DNA:RNA) RNA: GGGAGACCGGAAUUCAGAUUGUCCCGCACGCUUAAAUCCCGUCGUAGCCACCA DNA 1: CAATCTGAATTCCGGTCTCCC DNA 2: TGGTGGCTACGACGGGATT :: 0.0306 KA relative to UGCAUGU
AAUAAUA (DNA:RNA) RNA: GGGAGACCGGAAUUCAGAUUGUCCAAUAAUAUUAAAUCCCGUCGUAGCCACCA DNA 1: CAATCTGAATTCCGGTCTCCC DNA 2: TGGTGGCTACGACGGGATT :: 0.000771 KA relative to UGCAUGU
CGCGUCG (DNA:RNA) RNA: GGGAGACCGGAAUUCAGAUUGUCCCGCGUCGUUAAAUCCCGUCGUAGCCACCA DNA 1: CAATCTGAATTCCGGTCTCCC DNA 2: TGGTGGCTACGACGGGATT :: 0.0133 KA relative to UGCAUGU
GCGCACG (DNA:RNA) RNA: GGGAGACCGGAAUUCAGAUUGUCCGCGCACGUUAAAUCCCGUCGUAGCCACCA DNA 1: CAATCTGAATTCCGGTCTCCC DNA 2: TGGTGGCTACGACGGGATT :: 0.062 KA relative to UGCAUGU
GCACGCU (DNA:RNA) RNA: GGGAGACCGGAAUUCAGAUUGUCCGCACGCUUUAAAUCCCGUCGUAGCCACCA DNA 1: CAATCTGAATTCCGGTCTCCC DNA 2: TGGTGGCTACGACGGGATT :: 0.0317 KA relative to UGCAUGU

# get_value(readout='binding signal', item= UGGCAUA (DNA:RNA) RNA: GGGAGACCGGAAUUCAGAUUGUCCUGGCAUAUUAAAUCCCGUCGUAGCCACCA DNA 1: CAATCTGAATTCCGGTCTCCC DNA 2: TGGTGGCTACGACGGGATT ) 0.0137 KA relative to UGCAUGU

Which binding signal reading was recorded for the binder GCGUCCG (DNA:RNA) RNA: GGGAGACCGGAAUUCAGAUUGUCCGCGUCCGUUAAAUCCCGUCGUAGCCACCA DNA 1: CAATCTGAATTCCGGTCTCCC DNA 2: TGGTGGCTACGACGGGATT ? 0.0136 KA relative to UGCAUGU

I have this binder here, AGGUAUU (DNA:RNA) RNA: GGGAGACCGGAAUUCAGAUUGUCCAGGUAUUUUAAAUCCCGUCGUAGCCACCA DNA 1: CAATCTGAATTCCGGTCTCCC DNA 2: TGGTGGCTACGACGGGATT , and I need its recorded binding signal. 0.0064 KA relative to UGCAUGU

Look up binding signal for this binder: GGCAUUG (DNA:RNA) RNA: GGGAGACCGGAAUUCAGAUUGUCCGGCAUUGUUAAAUCCCGUCGUAGCCACCA DNA 1: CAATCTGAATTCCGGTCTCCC DNA 2: TGGTGGCTACGACGGGATT 0.0108 KA relative to UGCAUGU
